Biological target: CETP (Homo sapiens, UniProt P11597)
Construct: made in house; host or cells: CHO cells (serum-free conditioned medium)
Sequence (P11597 18-493): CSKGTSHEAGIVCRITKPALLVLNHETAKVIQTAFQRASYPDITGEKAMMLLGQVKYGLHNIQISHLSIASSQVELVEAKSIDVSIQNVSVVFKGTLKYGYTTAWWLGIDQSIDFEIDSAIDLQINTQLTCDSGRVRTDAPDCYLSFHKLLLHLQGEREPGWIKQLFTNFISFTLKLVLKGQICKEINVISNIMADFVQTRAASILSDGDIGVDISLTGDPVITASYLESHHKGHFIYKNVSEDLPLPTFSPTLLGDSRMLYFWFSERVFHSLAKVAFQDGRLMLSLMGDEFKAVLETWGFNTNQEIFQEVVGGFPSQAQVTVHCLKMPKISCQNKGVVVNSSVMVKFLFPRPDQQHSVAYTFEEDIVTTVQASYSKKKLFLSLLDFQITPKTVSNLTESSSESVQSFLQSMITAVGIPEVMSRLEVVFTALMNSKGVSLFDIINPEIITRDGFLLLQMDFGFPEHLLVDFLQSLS
Experiment: CETP activity in vitro: transfer of [3H]CE from HDL donor to LDL acceptor particles
Type: biochemical
Settings: Table 6, compounds of formula T-6; read-out: IC50
Items are presented alongside their recorded IC50.

# structure_smiles_string, study_system, IC50
records = [
    ("COC(=O)c1c(C(F)F)nc(C(F)(F)F)c(CSc2ccc(NC(C)=O)cc2)c1CC(C)C", "CETP (Homo sapiens, UniProt P11597)", "> 100 µM"),
    ("COC(=O)c1c(C(F)F)nc(C(F)(F)F)c(CSc2ncccn2)c1CC(C)C", "CETP (Homo sapiens, UniProt P11597)", "70 µM"),
    ("COC(=O)c1c(C(F)F)nc(C(F)(F)F)c(CSc2ccccc2Cl)c1CC(C)C", "CETP (Homo sapiens, UniProt P11597)", "40 µM"),
    ("COC(=O)c1c(C(F)F)nc(C(F)(F)F)c(CSc2cccc(OC)c2)c1CC(C)C", "CETP (Homo sapiens, UniProt P11597)", "45 µM"),
    ("COC(=O)c1c(C(F)F)nc(C(F)(F)F)c(CSc2c(F)c(F)cc(F)c2F)c1CC(C)C", "CETP (Homo sapiens, UniProt P11597)", "50 µM"),
]
